experimental target: Catechol O-methyltransferase (Homo sapiens) (UniProt P21964)
Sequence (P21964 whole entry, looked up): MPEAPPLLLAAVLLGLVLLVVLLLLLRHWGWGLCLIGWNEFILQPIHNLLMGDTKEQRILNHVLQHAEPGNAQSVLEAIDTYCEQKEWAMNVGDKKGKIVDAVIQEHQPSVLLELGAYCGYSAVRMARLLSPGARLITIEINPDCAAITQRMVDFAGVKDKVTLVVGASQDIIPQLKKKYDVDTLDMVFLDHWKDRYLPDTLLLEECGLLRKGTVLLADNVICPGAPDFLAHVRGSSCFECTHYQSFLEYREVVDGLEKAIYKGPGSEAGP
assay name: Confirmatory Screen for Target Class Profiling of Small Molecule Inhibitors of Methyltransferases (AID 1745852)
test conditions: MTase-Glo luminescence, SAH detection, recombinant enzyme; measured here: COMT max response; stronger effect = lower value
property name: activity
Mention the unit after the number when you answer.

Use these answered entries as a reference point.
- molecule: "O=C(CCc1nnc2n(Cc3ccc(F)cc3)c(=O)c3ccccc3n12)N1CCC(N2CCCCC2)CC1"
  experimental target: "Catechol O-methyltransferase (Homo sapiens) (UniProt P21964)"
  property name: "activity"
  result: "3.84%"
- molecule: "COc1ccccc1-c1[nH]nc2ncc(C(=O)N3CCN(Cc4ccccc4)CC3)nc12"
  experimental target: "Catechol O-methyltransferase (Homo sapiens) (UniProt P21964)"
  property name: "activity"
  result: "-51.3%"
- molecule: "O=C(NCCc1ccc(Cl)cc1)c1ccc2c(=O)[nH]c3c(C(=O)NCC4CCCO4)sc(=S)n3c2c1 (stereo not given)"
  experimental target: "Catechol O-methyltransferase (Homo sapiens) (UniProt P21964)"
  property name: "activity"
  result: "-36.2%"

Respectfully, I request activity for each entry included below.
1. CC(C)Cn1c(=O)c2ccccc2n2c(CCC(=O)N3CCN(c4ccccc4F)CC3)nnc12
2. Cc1cnccc1NCCn1ccnc1-c1cc2n(n1)CCCNC2
3. CCc1ccc(N2C(=O)c3cc4sccc4n3CC2(C)C(=O)NC2CCCCCC2)cc1 (stereo not given)
4. COc1ccc(OC)c(NC(=O)c2sc(=S)n3c2[nH]c(=O)c2ccc(Cl)cc23)c1
5. CCCC1c2cccn2CCN1C(=O)Nc1ccc(Br)cc1F (stereo not given)
6. Cc1cc(-c2nc3ccncc3[nH]2)c(C)[nH]1
7. CC1CCN(CCCNC(=O)CCc2nnc3n(Cc4ccccc4)c(=O)c4ccccc4n23)CC1

Result:
1: 2.07%; 2: -0.636%; 3: -4.01%; 4: -83.1%; 5: -8.21%; 6: -4.56%; 7: 0.801%

Cited source for all entries: PubChem BioAssay (NCATS)
